target: acetylcholine receptor; test: SPR, AchR immobilized on CM5 chip, peptide at 10 uM
Parameter Binding affinity (RU): see the listing below.

| Binder | Binding affinity (RU) |
| --- | --- |
| KRHCHK [6mer-1-811] | 16 |
| KHCWR [5mer-1000] | 20 |
| RGVQKR [6mer-2-379] | 127 |
| KIEAK [5mer-707] | 32 |
| KSQLRR [6mer-2-348] | 153 |
| KWLRRR [6mer-2-390] | 145 |
| RKNKR [5mer-1014] | 23 |
| RRPNMK [6mer-1-828] | 26 |
| KYPKK [5mer-713] | 16 |
| RNKKK [5mer-718] | 19 |
| RQIYKK [6mer-2-358] | 154 |
| KRNTWK [6mer-1-838] | 17 |
| RWLTRR [6mer-2-399] | 148 |
| KLYTKR [6mer-2-351] | 135 |
| KRQLKK [6mer-2-374] | 125 |
| KPCGK [5mer-1001] | 33 |
| KINVR [5mer-716] | 25 |
| RRYSKK [6mer-2-347] | 148 |
| KQYYRR [6mer-2-366] | 142 |
| RREHIR [6mer-1-800] | 15 |
| RRKKKR [6mer-1-799] | 30 |
| RQIRRR [6mer-2-400] | 154 |
| KREPIK [6mer-1-822] | 17 |
| RRFEKK [6mer-1-808] | 24 |
| RRLTRR [6mer-2-340] | 122 |
| RFKFK [5mer-1019] | 28 |
| KDCPR [5mer-739] | 16 |
| RASPR [5mer-723] | 22 |
| KYDNK [5mer-1048] | 12 |
| RHAKK [5mer-705] | 15 |
| KRPAFK [6mer-1-857] | 14 |
| KITHK [5mer-1021] | 26 |
| RRIHKK [6mer-1-829] | 25 |
| KPKAR [5mer-708] | 20 |
